Assay: Simulated Intestinal Fluid (SIF) Stability Assay
Format: in vitro ADME, porcine
Conditions: pig, simulated intestinal fluid (SIF) with 1% porcine pancreatin, pH 6.5, Table 4-C, t1/2; > means assay stopped at that time; read-out: SIF (porcine) Min
Bridge positions count the residues as written; N and C are the ends. Square brackets hold non-standard residues; d marks the D form. Peptide text beside a SMILES is read from it. NMeR = CN[C@@H](CCCNC(=N)N)C(=O)O
Give measured half-life at 22 μM for each item. Keep answers brief.

Input line: Which half-life at 22 μM is listed for CC(=O)N[C@H]1CSSC[C@@H](C(=O)NCC(=O)N[C@@H](CCC(=O)O)C(N)=O)NC(=O)[C@H](CC(C)C)NC(=O)[C@H]([C@@H](C)O)NC(=O)[C@H](CC(=O)O)NC(=O)[C@H](CO)NC(=O)[C@H](CCCNC(=N)N)NC1=O [compound 194, Ac-C-R-S-D-T-L-C-G-E-NH2] (Ac-CRSDTLCGE-NH2; disulfide 1-7) ?
Output line: < 1 min

Input line: Which half-life at 22 μM value is on record for CC(=O)N[C@H]1CSSC[C@@H](C(=O)NCC(=O)N[C@@H](CCC(=O)O)C(=O)N[C@@H](CCCCN)C(=O)O)NC(=O)[C@H](CC(C)C)NC(=O)[C@H]([C@@H](C)O)NC(=O)[C@H](CC(=O)O)NC(=O)[C@H](CO)NC(=O)[C@H](CCCNC(=N)N)N(C)C1=O [compound 199, Ac-C-N-Me-R-S-D-T-L-C-G-E-K-OH] (Ac-C[NMeR]SDTLCGEK-OH; disulfide 1-7) ?
Output line: 27 min

----------
Provide the recorded IC50 for the entries that follow.
Molecular target: α4β1 (Homo sapiens, UniProt P05556+P13612, DEL729-798)
Construct: purchased R&D Systems 5668-A4
Sequence (P05556 21-728 limits assumed, stated change not applied, one chain of several): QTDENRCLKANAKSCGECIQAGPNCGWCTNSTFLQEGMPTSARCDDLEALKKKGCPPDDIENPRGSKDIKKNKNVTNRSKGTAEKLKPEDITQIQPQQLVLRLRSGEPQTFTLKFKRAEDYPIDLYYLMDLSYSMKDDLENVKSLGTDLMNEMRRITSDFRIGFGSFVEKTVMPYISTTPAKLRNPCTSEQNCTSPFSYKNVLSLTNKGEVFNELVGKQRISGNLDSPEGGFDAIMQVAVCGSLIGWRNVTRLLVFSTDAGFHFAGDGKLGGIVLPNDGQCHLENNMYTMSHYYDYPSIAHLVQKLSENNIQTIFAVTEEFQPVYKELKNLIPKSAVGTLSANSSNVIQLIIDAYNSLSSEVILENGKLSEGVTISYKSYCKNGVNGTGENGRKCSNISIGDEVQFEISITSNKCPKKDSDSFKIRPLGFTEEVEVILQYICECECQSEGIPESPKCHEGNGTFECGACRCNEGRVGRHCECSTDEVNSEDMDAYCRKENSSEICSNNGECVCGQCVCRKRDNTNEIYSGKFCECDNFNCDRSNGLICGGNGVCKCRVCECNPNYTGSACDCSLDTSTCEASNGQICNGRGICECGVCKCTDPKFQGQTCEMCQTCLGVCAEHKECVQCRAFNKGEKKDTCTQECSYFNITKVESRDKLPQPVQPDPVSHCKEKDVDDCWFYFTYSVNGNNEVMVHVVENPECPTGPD
Experiment: α4β1-VCAM Competition ELISA
Assay type: binding
Details: Table 4-B; read-out: ELISA_α4β1 IC50
Bridge positions count the residues as written; N and C are the ends. Square brackets hold non-standard residues; d marks the D form. Peptide text beside a SMILES is read from it. NMeR = CN[C@@H](CCCNC(=N)N)C(=O)O

Input line: I'm curious: which IC50 was measured for CC(=O)N[C@H]1CSSC[C@@H](C(=O)NCC(=O)N[C@@H](CCC(=O)O)C(N)=O)NC(=O)[C@H](CC(C)C)NC(=O)[C@H]([C@@H](C)O)NC(=O)[C@H](CC(=O)O)NC(=O)[C@H](CO)NC(=O)[C@H](CCCNC(=N)N)N(C)C1=O [compound 198, Ac-C-N-Me-R-S-D-T-L-C-G-E-NH2] (Ac-C[NMeR]SDTLCGE-NH2; disulfide 1-7) tested on α4β1 (Homo sapiens, UniProt P05556+P13612, DEL729-798)?
Output line: 1290 nM

Input line: IC50 of CC(=O)N[C@H]1CSSC[C@@H](C(N)=O)NC(=O)[C@H](CC(C)C)NC(=O)[C@H]([C@@H](C)O)NC(=O)[C@H](CC(=O)O)NC(=O)[C@H](CO)NC(=O)[C@H](CCCNC(=N)N)NC1=O [compound 195, Ac-C-R-S-D-T-L-C-NH2] (Ac-CRSDTLC-NH2; disulfide 1-7) on α4β1 (Homo sapiens, UniProt P05556+P13612, DEL729-798)?
Output line: 2880 nM

----------
Target: α4β1 (Homo sapiens, UniProt P05556+P13612, DEL729-798)
Construct: purchased R&D Systems 5668-A4
Experiment: α4β1-VCAM Competition ELISA
Format: binding
Conditions: Table 4-B; read-out: ELISA_α4β1 IC50
Bridge positions count the residues as written; N and C are the ends. Square brackets hold non-standard residues; d marks the D form. Peptide text beside a SMILES is read from it. NMeR = CN[C@@H](CCCNC(=N)N)C(=O)O; Pen = CC(C)(S)[C@H](N)C(=O)O
ASSAY_METRIC: pIC50
Please report pIC50 as the negative decimal logarithm of the molar concentration, giving only the number.

Input line: Entry CC(=O)N[C@H]1CSSC(C)(C)[C@@H](C(=O)N[C@H](CCCCN)C(N)=O)NC(=O)[C@H](CC(C)C)NC(=O)[C@H]([C@@H](C)O)NC(=O)[C@H](CC(=O)O)NC(=O)[C@H](CO)NC(=O)[C@H](CCCNC(=N)N)N(C)C1=O [compound 202, Ac-C-N-Me-R-S-D-T-L-Pen-k-NH2] (Ac-C[NMeR]SDTL[Pen][dK]-NH2; disulfide 1-7) has what pIC50?
Output line: 5.79

----------
Target: rh integrin α4β7 (Homo sapiens, UniProt P13612+P26010)
Construct: purchased R&D Systems 5397-A30
Sequence (P13612 34-977 limits assumed): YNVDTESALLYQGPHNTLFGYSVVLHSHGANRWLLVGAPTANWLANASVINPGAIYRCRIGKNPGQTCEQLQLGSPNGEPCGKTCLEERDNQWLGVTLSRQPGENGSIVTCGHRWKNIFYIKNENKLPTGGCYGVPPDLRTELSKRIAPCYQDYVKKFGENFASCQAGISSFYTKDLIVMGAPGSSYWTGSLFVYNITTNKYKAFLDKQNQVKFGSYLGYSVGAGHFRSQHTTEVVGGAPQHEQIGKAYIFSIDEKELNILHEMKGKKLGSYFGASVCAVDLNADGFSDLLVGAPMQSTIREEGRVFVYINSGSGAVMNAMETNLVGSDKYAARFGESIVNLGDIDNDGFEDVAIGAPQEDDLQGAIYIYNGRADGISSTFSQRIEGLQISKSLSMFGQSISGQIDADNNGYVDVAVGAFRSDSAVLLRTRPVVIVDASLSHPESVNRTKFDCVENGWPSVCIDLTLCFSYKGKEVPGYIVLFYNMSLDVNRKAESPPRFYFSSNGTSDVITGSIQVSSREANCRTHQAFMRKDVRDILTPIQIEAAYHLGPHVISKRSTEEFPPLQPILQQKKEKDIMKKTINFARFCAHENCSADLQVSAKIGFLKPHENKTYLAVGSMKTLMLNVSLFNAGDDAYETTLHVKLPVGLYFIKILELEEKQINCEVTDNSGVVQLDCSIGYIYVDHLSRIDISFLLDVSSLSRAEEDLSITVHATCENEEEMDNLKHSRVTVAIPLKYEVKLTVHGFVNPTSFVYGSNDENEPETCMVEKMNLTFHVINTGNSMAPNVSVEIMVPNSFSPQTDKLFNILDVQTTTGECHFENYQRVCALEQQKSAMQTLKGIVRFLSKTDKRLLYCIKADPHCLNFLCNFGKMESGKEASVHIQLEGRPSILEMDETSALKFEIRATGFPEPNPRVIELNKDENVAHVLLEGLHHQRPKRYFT
Sequence (P26010 20-723 limits assumed): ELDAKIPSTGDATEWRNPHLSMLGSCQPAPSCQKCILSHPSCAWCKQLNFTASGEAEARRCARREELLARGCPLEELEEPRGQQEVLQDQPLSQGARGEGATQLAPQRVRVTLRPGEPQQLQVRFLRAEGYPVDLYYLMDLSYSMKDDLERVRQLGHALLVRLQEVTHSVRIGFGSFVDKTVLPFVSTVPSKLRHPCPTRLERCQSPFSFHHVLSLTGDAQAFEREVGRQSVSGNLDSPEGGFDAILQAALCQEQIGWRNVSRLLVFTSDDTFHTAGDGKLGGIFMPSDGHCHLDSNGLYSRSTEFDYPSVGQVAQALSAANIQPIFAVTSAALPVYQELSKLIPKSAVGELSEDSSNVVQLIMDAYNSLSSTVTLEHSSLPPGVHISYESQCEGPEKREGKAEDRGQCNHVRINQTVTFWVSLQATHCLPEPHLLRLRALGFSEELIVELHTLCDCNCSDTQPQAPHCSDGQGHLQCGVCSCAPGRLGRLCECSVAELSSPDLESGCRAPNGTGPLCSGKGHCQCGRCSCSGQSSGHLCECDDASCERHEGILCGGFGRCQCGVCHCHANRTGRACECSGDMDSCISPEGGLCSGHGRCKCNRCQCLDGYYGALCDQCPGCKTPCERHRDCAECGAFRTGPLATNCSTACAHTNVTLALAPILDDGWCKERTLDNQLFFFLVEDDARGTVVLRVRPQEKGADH
Test: α4β7-MAdCAM Competition ELISA
Assay type: binding
Conditions: Table 3-B, Potency (α4β7); range classes; read-out: α4β7 ELISA IC50
Bridge positions count the residues as written; N and C are the ends. Square brackets hold non-standard residues; d marks the D form. Peptide text beside a SMILES is read from it. Phe(4-tBu) = CC(C)(C)c1ccc(C[C@H](N)C(=O)O)cc1; 2Nal = N[C@@H](Cc1ccc2ccccc2c1)C(=O)O; NMeR = CN[C@@H](CCCNC(=N)N)C(=O)O; hPhe = N[C@@H](CCc1ccccc1)C(=O)O; Pen = CC(C)(S)[C@H](N)C(=O)O
Could you please report measured IC50 for the items listed next?

Input line: Look up IC50 for this compound: CC(=O)N[C@@H]1C(=O)N(C)[C@@H](CCCNC(=N)N)C(=O)N[C@@H](CO)C(=O)N[C@@H](CC(=O)O)C(=O)N[C@@H]([C@@H](C)O)C(=O)N[C@@H](CC(C)C)C(=O)N[C@H](C(=O)N[C@@H](Cc2ccc3ccccc3c2)C(=O)N[C@@H](CCc2ccccc2)C(=O)N[C@H](CCCCN)C(N)=O)C(C)(C)SSC1(C)C [compound 50] (Ac-[Pen][NMeR]SDTL[Pen][2Nal][hPhe][dK]-NH2; disulfide 1-7)
Output line: 0.01 to 0.025 µM

Input line: Return reported IC50; argument: CC(=O)N[C@@H]1C(=O)N(C)[C@@H](CCCNC(=N)N)C(=O)N[C@@H](CO)C(=O)N[C@@H](CC(=O)O)C(=O)N[C@@H](CC(=O)O)C(=O)N[C@@H](CC(C)C)C(=O)N[C@H](C(=O)N[C@@H](Cc2c[nH]c3ccccc23)C(=O)N[C@@H](CCC(=O)O)C(=O)N[C@H](CCCCN)C(N)=O)C(C)(C)SSC1(C)C [compound 46] (Ac-[Pen][NMeR]SDDL[Pen]WE[dK]-NH2; disulfide 1-7)
Output line: 1 to 10 µM

Input line: So what's the measured IC50 for this one? CC(=O)N[C@@H]1C(=O)N(C)[C@@H](CCCNC(=N)N)C(=O)N[C@@H](CO)C(=O)N[C@@H](CC(=O)O)C(=O)N[C@@H]([C@@H](C)O)C(=O)N[C@@H](CC(C)C)C(=O)N[C@H](C(=O)N[C@@H](Cc2ccc(C(C)(C)C)cc2)C(=O)O)C(C)(C)SSC1(C)C [compound 151] (Ac-[Pen][NMeR]SDTL[Pen][Phe(4-tBu)]-OH; disulfide 1-7)
Output line: 0.01 to 0.025 µM

----------
Assay: Simulated Intestinal Fluid (SIF) Stability Assay
Format: in vitro ADME, porcine
Conditions: pig, simulated intestinal fluid (SIF) with porcine pancreatin, pH 6.5, Table 3-B; > means experiment was stopped at that time and half life was not reached; read-out: Stabilty SIF t1/2
Bridge positions count the residues as written; N and C are the ends. Square brackets hold non-standard residues; d marks the D form. Peptide text beside a SMILES is read from it. NMeR = CN[C@@H](CCCNC(=N)N)C(=O)O; Pen = CC(C)(S)[C@H](N)C(=O)O; βAla = NCCC(=O)O
Exercise: for every item that follows, state its recorded half-life at 22 μM.

Input line: Given the compound CC(C)C[C@@H]1NC(=O)[C@H]([C@@H](C)O)NC(=O)[C@H](CC(=O)O)NC(=O)[C@H](CO)NC(=O)[C@H](CCCNC(=N)N)N(C)C(=O)[C@@H](NC(=O)CCN)C(C)(C)SSC(C)(C)[C@@H](C(=O)N[C@@H](Cc2c[nH]c3ccccc23)C(=O)N[C@@H](CCC(=O)O)C(N)=O)NC1=O [compound 52] (H-[βAla][Pen][NMeR]SDTL[Pen]WE-NH2; disulfide 2-8) , what is its reported half-life at 22 μM?
Output line: 1.95 h

Input line: What measured half-life at 22 μM goes with CC(C)C[C@@H]1NC(=O)[C@H]([C@@H](C)O)NC(=O)[C@H](CC(=O)O)NC(=O)[C@H](CO)NC(=O)[C@H](CCCNC(=N)N)N(C)C(=O)[C@@H](NC(=O)CCN)C(C)(C)SSC(C)(C)[C@@H](C(=O)N[C@@H](Cc2c[nH]c3ccccc23)C(=O)N[C@H](CCC(=O)O)C(N)=O)NC1=O [compound 53] (H-[βAla][Pen][NMeR]SDTL[Pen]W[dE]-NH2; disulfide 2-8) ?
Output line: > 3 h
